Experiment: Cmax in DBA1 mouse lymph nodes at 5 mg/kg, po
Type: ADME, organism-based, Lymph node
Set-up: dose 5 mg/kg, route oral
outcome-measure: Cmax (ng/mL)
Supply the numeric figure in ng/mL, leaving out any unit text.

Give the measured Cmax of "COc1c(C)cnc(Cn2cc(C#CCC(C)(C)O)c3c(Cl)nc(N)nc32)c1C" . 2140

====

Assay: Toxicity in po dosed human N87 cell xenografted athymic mouse administered as qd for 5 days per week for 4 weeks
Type: organism-based, NCI-N87
Settings: in vivo
outcome-measure: MTD at 4 weeks (mg/kg)
# value in mg/kg; strip the unit string

Which MTD at 4 weeks is reported for this molecule? "COc1c(C)cnc(Cn2cc(C#CCC(C)(C)O)c3c(Cl)nc(N)nc32)c1C" 10

====

Test: Tmax in DBA1 mouse plasma at 5 mg/kg, po
Type: ADME, organism-based
Parameters: dose 5 mg/kg, route oral
outcome-measure: Tmax
Write your answer as a measured quantity: the number, then the unit.

# lookup: Tmax of "COc1c(C)cnc(Cn2cc(C#CCC(C)(C)O)c3c(Cl)nc(N)nc32)c1C" 4.98 min

====

Assay: Initial Cmax in CD-1 mouse at 25 mg/kg, po
Type: ADME, organism-based
Design: dose 25 mg/kg, route oral
Conditions: in vivo
# Cmax per entry
Reply with just the number (in ng/mL).

Consider the molecule "CC1(C)CC(=O)c2c(C(F)(F)F)nn(-c3ccc(C(N)=O)c(N[C@H]4CC[C@H](O)CC4)c3)c2C1" and give its measured Cmax. 1720

Quick one: Cmax of "COc1c(C)cnc(Cn2cc(C#CCC(C)(C)O)c3c(Cl)nc(N)nc32)c1C" ? 1560

====

Test: Cmax in DBA1 mouse spleen at 5 mg/kg, po
Format: ADME, organism-based
Parameters: dose 5 mg/kg, route oral
outcome-measure: Cmax (ng/mL)
Return type: number; implicit unit ng/mL.

Any idea what its Cmax is? The compound is "COc1c(C)cnc(Cn2cc(C#CCC(C)(C)O)c3c(Cl)nc(N)nc32)c1C" 1890

====

Experiment: AUC (infinity) in DBA1 mouse lymph nodes at 5 mg/kg, po
Format: ADME, organism-based, Lymph node
Parameters: time infinity, dose 5 mg/kg, route oral
outcome-measure: AUC(0-inf) (ng·h/mL)
Give the value, in units of ng·h/mL, as a plain number.

Param item = "COc1c(C)cnc(Cn2cc(C#CCC(C)(C)O)c3c(Cl)nc(N)nc32)c1C" ; retrieve measured AUC(0-inf). 5190

====

Assay: AUC in CD-1 mouse at 25 mg/kg, po
Assay type: ADME, organism-based
Parameters: dose 25 mg/kg, route oral
Conditions: plasma
Reported AUC values for a set of molecules
Response body: numeric value in ng·h/mL, unit text excluded.

- molecule: "COc1c(C)cnc(Cn2cc(C#CCC(C)(C)O)c3c(Cl)nc(N)nc32)c1C"
  AUC (ng·h/mL): 4420

Let's switch to this molecule now.
What value of measured AUC is listed for CC1(C)CC(=O)c2c(C(F)(F)F)nn(-c3ccc(C(N)=O)c(N[C@H]4CC[C@H](O)CC4)c3)c2C1 [SNX-2112] ? 8520

====

Experiment: AUC (infinity) in DBA1 mouse brain at 5 mg/kg, po
Format: ADME, organism-based
Set-up: dose 5 mg/kg, route oral, time infinity
outcome-measure: AUC(0-inf)

What value of AUC(0-inf) has been recorded for this entry: "COc1c(C)cnc(Cn2cc(C#CCC(C)(C)O)c3c(Cl)nc(N)nc32)c1C" 4710 ng·h/mL

Every entry's value here was drawn from ChEMBL document CHEMBL2203093.
